Give TGI for every item shown.
tested on: DU-145 prostate; assay: NCI tumour cell line growth inhibition, 48 h

{"COMPOUND": "[O-]/N=N\\c1on[n+](CCc2ccccc2)c1Cc1c(/N=N/[O-])on[n+]1CCc1ccccc1", "RESULT VALUE": "> 100 µM"}
{"COMPOUND": "C=CCC1(O)C(=O)OC2C(O)COC21O (stereo not given)", "RESULT VALUE": "> 100 µM"}
{"COMPOUND": "CC(=O)c1c2c(cc3c1CC1(C3)Cc3ccc4c(c3C1=O)CCC4)CCC2 (stereo not given)", "RESULT VALUE": "> 100 µM"}

Please give TGI, item by item, for the list that follows.
1. NS(=O)(=O)c1cccc(-c2cc3ccncc3cc2OCc2ccccc2)c1
2. S=C1NCCN1C(=S)NC1CCCCC1

Out:
1. > 25 µM
2. > 100 µM

Give one value of TGI per listed compound.
1. O=S(=O)(c1ccccc1)[C@@H]1[C@H]2C=C[C@](CS)(O2)[C@H]1S(=O)(=O)c1ccccc1
2. Cc1cc(C(=O)N2CCN(C)CC2)c2c(=O)n(-c3ccccc3)c(=O)n(CC(O)CN3CCN(c4ncccn4)CC3)c2n1 (stereo not given)
3. CC(C)CC(NC=O)C(=O)NC(Cc1ccccc1)NC(=O)CNC(=O)C(C)NC(=O)OC(C)(C)C (stereo not given)

Out:
1: > 100 µM; 2: > 100 µM; 3: > 100 µM

Please give TGI for each item listed below.
1. Cc1cc(O)c2cc3c(O)c(O)ccc3cc2c1
2. O=C1NC(=O)C(N2CCc3ccccc32)=C1c1ccc(Cl)cc1

Out:
> 50.8 µM
> 25 µM

# credit: PubChem BioAssay (NCI)
